system: Leishmania donovani; assay: Antileishmanial activity against axenic amastigote stage of Leishmania donovani MHOM/SD/1962/1S-Cl2d assessed as parasite growth inhibition at 5 uM after 24 hrs by AlamarBlue assay (reference value: 0.0 +/- 0.9%); type: functional; details: read-out: GI
Recorded inhibition of growth at 5 µM for the following molecules

Worked cases, inhibition of growth at 5 µM given:
molecule=C=C(C)[C@@H]1CC[C@]2(C(=O)O)CC[C@]3(C)[C@H](CC[C@@H]4[C@@]5(C)CCC(=O)NC(C)(C)[C@@H]5CC[C@]43C)[C@@H]12 experimentalvalue=52%
molecule="C=C(C)[C@@H]1CC[C@]2(C(=O)O)CC[C@]3(C)[C@H](CC[C@@H]4[C@@]5(C)CC[C@H](OC(=O)CC(C)(C)C(=O)O)C(C)(C)[C@@H]5CC[C@]43C)[C@@H]12 [BEVIRIMAT]" experimentalvalue=59%

Lab note: next molecule to report on.
Recall the reported inhibition of growth at 5 µM of C=C(C)[C@@H]1CC[C@]2(C(=O)O)CC[C@]3(C)[C@H](CC[C@@H]4[C@@]5(C)Cc6c([nH]c7ccc(OC)cc67)C(C)(C)[C@@H]5CC[C@]43C)[C@@H]12 on Leishmania donovani and write it down.
14%

====

tested on: Leishmania donovani; experiment: Antileishmanial activity against axenic amastigote stage of Leishmania donovani MHOM/SD/1962/1S-Cl2d assessed as parasite growth inhibition at 5 uM after 24 hrs by AlamarBlue assay (reference value: 0.0 +/- 0.9%); format: functional; details: read-out: GI
Reported inhibition of growth at 5 µM values follow for various compounds
Supply the numeric figure in %, leaving out any unit text.

The cases that follow already have their inhibition of growth at 5 µM on record.
itemsmiles=CC1(C)CC[C@]23CC[C@]4(C)[C@H](CC[C@@H]5[C@@]6(C)Cc7c([nH]c8ccc(F)cc78)C(C)(C)[C@@H]6CC[C@]54C)[C@H]2[C@H]1OC3 experimentalreadout="inhibition of growth at 5 µM" experimentalvalue=0.2
itemsmiles=C=C(C)[C@@H]1CC[C@]2(C(=O)O)CC[C@]3(C)[C@H](CC[C@@H]4[C@@]5(C)Cc6nccnc6C(C)(C)[C@@H]5CC[C@]43C)[C@@H]12 experimentalreadout="inhibition of growth at 5 µM" experimentalvalue=20.3

With those in mind, consider the next compound.
State its inhibition of growth at 5 µM: C=C(C)[C@@H]1CC[C@]2(C(=O)O)CC[C@]3(C)[C@H](CC[C@@H]4[C@@]5(C)Cc6c([nH]c7ccccc67)C(C)(C)[C@@H]5CC[C@]43C)[C@@H]12
5
